Source: ChEMBL document CHEMBL4014327

Assay: Apparent intrinsic clearance in human liver microsomes
Format: ADME, microsome
Details: read-out: CLH(app)
property-name: microsomal CLint

Example results:
COc1cc2c(OC[C@H]3NC(=O)[C@@H]4[C@@H](C)[C@@H]43)nccc2cc1C(N)=O :: < 8 µL/min/mg
COC[C@@H]1CC(=O)N[C@@H]1COc1nccc2cc(C(N)=O)c(OC)cc12 :: < 8 µL/min/mg
COc1cc2c(OC[C@H]3NC(=O)[C@@]4(F)[C@@H]3[C@@H]4C)nccc2cc1C(N)=O :: < 8 µL/min/mg
COc1cc2c(OC[C@H]3NC(=O)[C@@H](F)[C@H]3C)nccc2cc1C(N)=O :: < 9 µL/min/mg

Query block: Requested read-out: microsomal CLint. Entry: `COc1cc2c(OC[C@H]3NC(=O)[C@@H]4C[C@H]34)nccc2cc1C(N)=O`
Result block: < 8 µL/min/mg
